From: the supplement of paper PMC9233669

self-aminoacylation for assorted sequences
# Tested on: biotinyl-Ile-oxazolone
# EXPERIMENTAL PROTOCOL: self-aminoacylation, catalytic enhancement (BIO) (fold over background); higher = more active; k-Seq, kA / k0A0; sequences stand for … in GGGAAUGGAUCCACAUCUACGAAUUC…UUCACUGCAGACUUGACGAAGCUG
Fewer inactive variants are shown than the library holds.

Solved cases below.
response.value for AUUCACCGAGGGCAUCGGGUG [Fam2.2 aminoacylation ribozyme variant] (field: self-aminoacylation) = 4.62

response.value for AUUCACCUAGGUCCUCGGAUG [Fam2.2 aminoacylation ribozyme variant] (field: self-aminoacylation) = 0.964

response.value for CCACACUUCAAUCCAUCGGUC [Fam1B.1 aminoacylation ribozyme variant] (field: self-aminoacylation) = 0.801

response.value for GUACUUCAAACAAUCGAUCUG [Fam1A.1 aminoacylation ribozyme variant] (field: self-aminoacylation) = 1.18

response.value for CCACACUCCAAGGAAUCGGUC [Fam1B.1 aminoacylation ribozyme variant] (field: self-aminoacylation) = 1.35

Others:
response.value for CCAGAGUUCAAGCAAUCGGUC [Fam1B.1 aminoacylation ribozyme variant] (field: self-aminoacylation) = 1.36

response.value for AUUCACCUAGGUCACCGGGCG [Fam2.2 aminoacylation ribozyme variant] (field: self-aminoacylation) = 3.96

----------
# Test system: biotinyl-Met-oxazolone
# EXPERIMENTAL PROTOCOL: self-aminoacylation, catalytic enhancement (BMO) (fold over background); higher = more active; k-Seq, kA / k0A0; sequences stand for … in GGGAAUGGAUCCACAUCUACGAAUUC…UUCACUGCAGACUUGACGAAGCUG
Variants at the floor of the assay were thinned out.
READOUT: self-aminoacylation
Field format: numeric only.

Solved cases below.
response.value for GUUACCCUGGUCAUCGAGAGA [Fam2.1 aminoacylation ribozyme variant] (field: self-aminoacylation) = 2.96

response.value for AUUACCCUGGUCAUCCAGUGA [Fam2.1 aminoacylation ribozyme variant] (field: self-aminoacylation) = 5.67

response.value for UUUACCCUGGUCAUCGAGUUA [Fam2.1 aminoacylation ribozyme variant] (field: self-aminoacylation) = 7.29

response.value for AUUCACAUUGGUCAUCGGGUG [Fam2.2 aminoacylation ribozyme variant] (field: self-aminoacylation) = 10.1

response.value for AAGUUUGCUGAUAGUCGUAAG [Fam3.1 aminoacylation ribozyme variant] (field: self-aminoacylation) = 0.951

response.value for AAGUCCGCUAAUAGUCGCAAG [Fam3.1 aminoacylation ribozyme variant] (field: self-aminoacylation) = 2.99

Others:
response.value for GUACUUCAAACAAUCGGUCUG [Fam1A.1 aminoacylation ribozyme variant] (field: self-aminoacylation) = 1.53

response.value for CUACUCCAUACAAUCGGUCUG [Fam1A.1 aminoacylation ribozyme variant] (field: self-aminoacylation) = 0.719

response.value for CCACACUCCAAGCAAUCGGGC [Fam1B.1 aminoacylation ribozyme variant] (field: self-aminoacylation) = 1.31

----------
# System: biotinyl-Phe-oxazolone
# EXPERIMENTAL PROTOCOL: self-aminoacylation, catalytic enhancement (BFO) (fold over background); higher = more active; k-Seq, kA / k0A0; sequences stand for … in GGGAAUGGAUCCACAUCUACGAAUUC…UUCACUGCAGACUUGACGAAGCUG
Variants at the floor of the assay were thinned out.
Given measured self-aminoacylation, output 1 (yes) if it is greater than or equal to 10 and 0 (no) if not.

Would you please look over these solved cases?
Q. Does self-aminoacylation meet or surpass 10 for CUACUUCAAUCAAUCGGUGUG [Fam1A.1 aminoacylation ribozyme variant] ?
A. 0 (no)

Q. Does self-aminoacylation meet or surpass 10 for AAGUUUGCUUAAAGUCGCAAG [Fam3.1 aminoacylation ribozyme variant] ?
A. 0 (no)

Q. Does self-aminoacylation meet or surpass 10 for AUUACUCUGGUCAUCGAGUGA [Fam2.1 aminoacylation ribozyme variant] ?
A. 0 (no)

Q. Does self-aminoacylation meet or surpass 10 for CUACUUUCAACAAUCGGUCUG [Fam1A.1 aminoacylation ribozyme variant] ?
A. 1 (yes)

Q. Does self-aminoacylation meet or surpass 10 for CCAGACUUCAAACAAUCGGUC [Fam1B.1 aminoacylation ribozyme variant] ?
A. 1 (yes)

Q. Does self-aminoacylation meet or surpass 10 for CCACACUUCAAGCAAUCGGGU [Fam1B.1 aminoacylation ribozyme variant] ?
A. 0 (no)

Q. Does self-aminoacylation meet or surpass 10 for AUUACCUUGGUUAUCGAGUGA [Fam2.1 aminoacylation ribozyme variant] ?
A. 1 (yes)

Q. Does self-aminoacylation meet or surpass 10 for AUACACCUAAGUCAUCGGGUG [Fam2.2 aminoacylation ribozyme variant] ?
A. 1 (yes)

Q. Does self-aminoacylation meet or surpass 10 for CUACUCCAGACAAUCGGUCUG [Fam1A.1 aminoacylation ribozyme variant] ?
A. 0 (no)

Q. Does self-aminoacylation meet or surpass 10 for AAGCUUGCUAAUAGUCGCAAG [Fam3.1 aminoacylation ribozyme variant] ?
A. 0 (no)

Others:
Q. Does self-aminoacylation meet or surpass 10 for CUACGUCAAACAAUCGGUCAG [Fam1A.1 aminoacylation ribozyme variant] ?
A. 0 (no)

Q. Does self-aminoacylation meet or surpass 10 for ACACGCUUCAAGCAAUCGGUC [Fam1B.1 aminoacylation ribozyme variant] ?
A. 1 (yes)
